- Study Target: SIK2 (Homo sapiens, UniProt Q9H0K1)
- Sequence (Q9H0K1 whole entry, species assumed): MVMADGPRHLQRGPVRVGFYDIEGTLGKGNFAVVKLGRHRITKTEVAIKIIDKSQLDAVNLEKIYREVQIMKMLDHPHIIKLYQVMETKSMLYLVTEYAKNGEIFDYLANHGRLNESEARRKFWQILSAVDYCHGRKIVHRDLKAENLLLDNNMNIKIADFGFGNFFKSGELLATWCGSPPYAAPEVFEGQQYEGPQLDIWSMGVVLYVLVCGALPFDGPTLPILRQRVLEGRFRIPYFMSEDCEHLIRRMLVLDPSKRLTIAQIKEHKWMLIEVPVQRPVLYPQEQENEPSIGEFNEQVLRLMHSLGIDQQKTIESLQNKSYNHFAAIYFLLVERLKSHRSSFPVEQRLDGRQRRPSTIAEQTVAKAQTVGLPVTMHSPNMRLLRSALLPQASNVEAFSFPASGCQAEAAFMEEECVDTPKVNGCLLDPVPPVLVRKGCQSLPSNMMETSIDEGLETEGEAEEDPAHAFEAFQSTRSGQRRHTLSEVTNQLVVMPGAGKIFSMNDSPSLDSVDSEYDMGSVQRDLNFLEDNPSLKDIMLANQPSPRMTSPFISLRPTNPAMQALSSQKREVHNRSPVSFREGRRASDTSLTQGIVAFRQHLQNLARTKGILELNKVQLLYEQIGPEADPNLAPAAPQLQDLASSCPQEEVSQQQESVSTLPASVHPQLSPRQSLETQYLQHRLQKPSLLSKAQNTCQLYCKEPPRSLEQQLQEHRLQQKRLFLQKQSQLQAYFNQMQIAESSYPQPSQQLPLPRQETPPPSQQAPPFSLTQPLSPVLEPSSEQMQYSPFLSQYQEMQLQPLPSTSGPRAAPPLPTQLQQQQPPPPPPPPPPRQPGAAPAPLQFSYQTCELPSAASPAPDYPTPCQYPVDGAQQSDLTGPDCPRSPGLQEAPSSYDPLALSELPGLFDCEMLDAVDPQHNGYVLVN
- Assay Method Text: SIK2 Enzymatic Assay High Version 2 (High ATP)
- Format: biochemical
- Protocol: All steps were performed at room temperature. Compounds were pre-plated onto an assay plate using an Echo acoustic dispenser (Labcyte, E550 or E555) at 80 nL per well. […] The plate is then read on the Pherastar (BMG Labtech) using a luminescence read. […]
Reported Metric: log10(IC50) (log10 of the value in nM)
Please be aware that the numbers have been log10-transformed from IC50 in nM.

Below, each entry is followed by its recorded log10(IC50) result.
INSERT INTO assay_data (line_notation, reported_metric, number) VALUES
  ('COCCNC(=O)c1ccc(Nc2cc3cc(-c4cc(C)ncc4O[C@H]4C[C@H]5COC[C@@H](C4)N5)ccn3n2)nc1', 'log10(IC50)', 0.00),
  ('Cc1cc(-c2ccn3nc(NC(=O)C4CC4)cc3c2)c(OC[C@H]2CCN2CC(F)(F)F)cn1', 'log10(IC50)', 1.18),
  ('Cc1cc(-c2ccn3nc(Nc4ccc(S(C)(=O)=O)cn4)cc3c2)c(O[C@H]2C[C@H]3COC[C@@H](C2)N3)cn1', 'log10(IC50)', 0.12),
  ('N#Cc1cc(-c2ccn3nc(NC(=O)C4CC4)cc3c2)c(O[C@H]2C[C@H]3CC[C@@H](C2)N3)cn1', 'log10(IC50)', 0.71);

Lab note: each molecule below needs its log10(IC50) filled in.
1. CN1[C@@H]2COC[C@H]1C[C@@H](Oc1ccc(C(F)F)cc1-c1ccn3nc(NC(=O)C4CC4)cc3c1)C2
2. Cc1cc(-c2ccn3nc(Nc4cnccn4)cc3c2)c(O[C@H]2C[C@H]3COC[C@@H](C2)N3)nn1
3. CC(=O)N1[C@@H]2COC[C@H]1C[C@@H](Oc1cnc(C)cc1-c1ccn3nc(Nc4ccc(=O)n(C)n4)cc3c1)C2

[0.63, 1.45, 0.81]
